FYI, the data here is from PubChem BioAssay (NCI).

# Test system: RPMI-8226 leukemia
# Experimental Details: NCI-60 one-dose screen, 48 h (100 = growth as untreated, 0 = no growth, -100 = all killed)
# Condition Summary: 10 µM unless noted
About 83,000 compounds went through this panel and 20% of them were active in at least one assay; those are over-represented in the sample as a whole. Activity calls are given as the source filed them. How the source made its calls: active means growth percent below 10; inactive means the rest.
What growth was measured for each of the following?

Give growth for the following compound: `N#Cc1c(NC(=O)c2ccc(F)c(Cl)c2)sc2c1CCC(=O)C2`
0.133% (active)

Give growth for the following compound: `Oc1ccc(CSc2nnc(-c3ccc(Oc4ccccc4)cc3)n2-c2ccccc2)c2cccnc12`
7.82% (active)

Give growth for the following compound: `O=C1[C@H]2Cc3c([nH]c4ccccc34)[C@@H](c3ccc(Cl)cc3)N2C(=O)CN1C1CCN(Cc2c(Cl)cccc2Cl)CC1`
88.4% (inactive)

Give growth for the following compound: `COc1ccc([C@H]2[C@H](O)C(=O)N2c2cc(OC)c(OC)c(OC)c2)cc1Cl`
19% (inactive)

Give growth for the following compound: `O=C(NNc1nc2cc(F)ccc2n2cncc12)c1cnccn1`
25.4% (inactive)

Give growth for the following compound: `CS(=O)(=O)c1ccc2c(c1)c1c(n2S(=O)(=O)c2ccc(Cl)cc2)CCCC1`
19.1% (inactive)

Give growth for the following compound: `CC(=O)NC(C)(C)C(=O)N1CCC[C@H]1C(=O)NC(C)(C)C(=O)N[C@@H](C)C(=O)NC(C)(C)C(=O)N[C@@H](C)C(=O)N[C@@H](CCC(N)=O)C(=O)NC(C)(C)C(=O)N[C@H](C(=O)NC(C)(C)C(=O)NCC(=O)N[C@@H](CC(C)C)C(=O)NC(C)(C)C(=O)N1CCC[C@H]1C(=O)N[C@H](C(=O)NC(C)(C)C(=O)NC(C)(C)C(=O)N[C@@H](CCC(N)=O)C(=O)N[C@@H](CCC(N)=O)C(=O)N[C@H](CO)Cc1ccccc1)C(C)C)C(C)C`
1.4% [4.25 µM] (active)

Give growth for the following compound: CS(=O)c1nccc(-c2c(-c3ccc(F)c(OCCc4ccccc4)c3)nc3sccn23)n1 (stereo not given)
55.8% (inactive)

Give growth for the following compound: `Cc1cn(-c2cc(NC(=O)c3cncc(C#Cc4cnc5ccc(O[C@H]6CCOC6)nn45)c3)cc(C(F)(F)F)c2)cn1`
85.4% (inactive)

Give growth for the following compound: `N#Cc1c(NC(=O)c2ccccc2C(F)(F)F)sc2c1CCC(=O)C2`
-2.1% (active)

Give growth for the following compound: `CC[C@H](C)[C@H]1NC(=O)[C@@H]([C@H](O)C(C)C)NC(=O)[C@@H](C)N(C)C(=O)[C@H](C)N(C)C(=O)[C@H](CC(C)C)NC(=O)[C@H](CC(C)C)N(C)C(=O)[C@H](C)N(C)C1=O`
-13.8% (active)

Give growth for the following compound: `Oc1ccc(CSc2nnc(-c3ccncc3)n2-c2ccccc2)c2cccnc12`
13.6% (inactive)

Give growth for the following compound: `O=C1c2c(c3c4cccnc4[nH]c3c3ccc4ccccc4c23)C(=O)N1CCN1CCNCC1`
74.3% (inactive)

Give growth for the following compound: `Cc1ccc(-c2cc3nc(C(Cl)Cl)nc(-c4ccccc4)n3n2)cc1`
82.5% (inactive)

Give growth for the following compound: `COc1ccc(/C=C/C(=O)c2nnn(-c3ccc(Br)cc3)c2C)cc1OC`
10.5% (inactive)
